The reported measurements were obtained from patent US8993527B2.

- Test system: coronary endothelial cells
- method_description: Inhibition of adenosine utilization in cell culture
- Format: cell-based
- protocol_conditions: 50 μM, 1 μM [3H] adenosine, 15 minutes
Catalogue of compounds with associated Inhibition of Adenosine Utilization (%)
parameter_measured: Inhibition of Adenosine Utilization (%)

1. Nc1c(C(=O)NCCCc2ccc([N+](=O)[O-])cc2)ncn1[C@@H]1O[C@H](CO)[C@@H](O)[C@H]1O :: 33 ± 9%
2. Nc1c(C(=O)NCc2ccc(S(N)(=O)=O)cc2)ncn1[C@@H]1O[C@H](CO)[C@@H](O)[C@H]1O :: 30 ± 3%
3. [N-]=[N+]=NC[C@H]1O[C@@H](n2cnc(C(=O)NCc3ccc([N+](=O)[O-])cc3)c2N)[C@H](O)[C@@H]1O :: 31 ± 11%
4. C[C@H]1O[C@@H](n2cnc(C(=O)NCc3ccc(Cl)cc3)c2N)[C@H](O)[C@@H]1O :: 72 ± 5%
